Molecular target: T1, Haa1(DBD)-His6 (Saccharomyces cerevisiae, UniProt Q12753 1-123)
T1 sequence: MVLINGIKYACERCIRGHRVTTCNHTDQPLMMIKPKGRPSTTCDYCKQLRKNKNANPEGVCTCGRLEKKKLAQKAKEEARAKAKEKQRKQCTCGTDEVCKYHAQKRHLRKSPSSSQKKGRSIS
Assay: SPR
assay_metric: Kd (nM)
// units = nM; emit number, no label

binder	Kd, nM
TPO3 wild-type HRE (GGCGAGGGG) (dsDNA) DNA 1: TTCTCTGTGCTTGGCGAGGGGTTTACTGGAGCCCAATC DNA 2: GATTGGGCTCCAGTAAACCCCTCGCCAAGCACAGAGAA	2

Kd measured on HRE mutant 5 (GGCGAGAGG) (dsDNA) DNA 1: TTCTCTGTGCTTGGCGAGAGGTTTACTGGAGCCCAATC DNA 2: GATTGGGCTCCAGTAAACCTCTCGCCAAGCACAGAGAA = 21.4

GET /value?item= HRE mutant 3 (GGCGCGGGG) (dsDNA) DNA 1: TTCTCTGTGCTTGGCGCGGGGTTTACTGGAGCCCAATC DNA 2: GATTGGGCTCCAGTAAACCCCGCGCCAAGCACAGAGAA &field=Kd returns 13.6

The reported Kd of the binder HRE mutant 8 (GGCGAGGGA) (dsDNA) DNA 1: TTCTCTGTGCTTGGCGAGGGATTTACTGGAGCCCAATC DNA 2: GATTGGGCTCCAGTAAATCCCTCGCCAAGCACAGAGAA was 119
